- system: EGFR L858R/T790M/C797S (Homo sapiens, UniProt P00533, C797S/L858R/T790M)
- Sequence (P00533 25-1210 T790M/C797S/L858R): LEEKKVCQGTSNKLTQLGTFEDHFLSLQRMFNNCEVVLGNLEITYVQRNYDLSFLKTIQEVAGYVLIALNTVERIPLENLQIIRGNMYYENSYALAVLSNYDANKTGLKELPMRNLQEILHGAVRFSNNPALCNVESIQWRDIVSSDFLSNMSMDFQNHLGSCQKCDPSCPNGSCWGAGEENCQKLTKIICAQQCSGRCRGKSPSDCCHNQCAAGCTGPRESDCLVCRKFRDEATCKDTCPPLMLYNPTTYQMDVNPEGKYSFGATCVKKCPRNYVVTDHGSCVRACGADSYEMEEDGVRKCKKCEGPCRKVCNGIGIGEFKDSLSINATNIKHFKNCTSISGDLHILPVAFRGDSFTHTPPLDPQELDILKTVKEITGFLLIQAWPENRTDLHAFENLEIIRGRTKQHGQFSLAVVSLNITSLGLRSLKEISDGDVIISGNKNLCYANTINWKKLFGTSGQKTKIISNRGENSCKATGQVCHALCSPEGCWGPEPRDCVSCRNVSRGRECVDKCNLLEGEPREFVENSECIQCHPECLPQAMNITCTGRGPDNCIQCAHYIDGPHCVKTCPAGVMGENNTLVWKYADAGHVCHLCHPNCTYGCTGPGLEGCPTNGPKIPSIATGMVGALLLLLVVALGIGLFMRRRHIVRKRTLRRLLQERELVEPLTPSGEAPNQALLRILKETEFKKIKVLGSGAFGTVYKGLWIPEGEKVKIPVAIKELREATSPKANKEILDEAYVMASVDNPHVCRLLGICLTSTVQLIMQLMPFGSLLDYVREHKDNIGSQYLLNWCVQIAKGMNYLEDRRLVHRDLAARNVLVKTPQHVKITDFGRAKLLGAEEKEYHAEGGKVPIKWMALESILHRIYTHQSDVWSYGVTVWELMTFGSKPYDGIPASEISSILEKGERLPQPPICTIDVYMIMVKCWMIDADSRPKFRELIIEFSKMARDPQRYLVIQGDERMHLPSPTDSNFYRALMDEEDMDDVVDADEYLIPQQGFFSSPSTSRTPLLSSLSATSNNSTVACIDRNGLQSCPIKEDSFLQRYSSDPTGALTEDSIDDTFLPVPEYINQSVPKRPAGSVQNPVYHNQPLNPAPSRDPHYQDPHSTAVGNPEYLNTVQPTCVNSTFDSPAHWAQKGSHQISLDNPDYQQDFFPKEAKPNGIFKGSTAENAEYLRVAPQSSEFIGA
- procedure details: Biochemical EGFR kinase assay (Lance Ultra TR-FRET), triple mutant L858R/T790M/C797S
- test context: Km ATP; read-out: IC50 L858R/T790M/C797S (nM) Km ATP
- Method: Biochemical EGFR kinase assays were conducted using Lance Ultra time-resolved fluorescence resonance energy transfer (TR-FRET) technology from Perkin-Elmer. […] Each kinase reactions were incubated at room temperature for 1 hour and then stopped by the addition of 4 μL of stop solution (10 mM EDTA). […] After 60 minutes incubation at room temperature the LANCE signal was measured on an EnVision Multilabel Reader (Perkin-Elmer). […]
Categories are assigned from the measured IC50 using these intervals: low group: < 0.2 nM; middle group: ≥ 0.2 nM and < 0.8 nM; high group: ≥ 0.8 nM

Worked cases, answers included:
INSERT INTO measurements (compound, class_assignment) VALUES
  ('O=S(=O)(C1CC1)n1cc(-c2nccc(Nc3cc(OC4CCC(O)CC4)c(-c4ccn(C(F)F)n4)cn3)n2)cn1 (centres unmarked)', 'middle group'),
  ('COc1ncc(-c2nccc(Nc3cc(N[C@H]4CC[C@@](C)(O)CC4)c(-c4ccn(C(F)F)n4)cn3)n2)cn1', 'high group'),
  ('C[C@]1(O)CC[C@@H](Nc2cc(Nc3ccnc(-c4cnn(S(=O)(=O)C5CC5)c4)n3)ncc2-c2csc(N3CCOCC3)n2)CC1', 'middle group'),
  ('COc1ncc(-c2nccc(Nc3cc(N[C@H]4CC[C@@](C)(O)CC4)c(-c4ccn(C(F)F)n4)cn3)n2)cc1F', 'high group');

// query Which IC50 band matches O=S(=O)(C1CC1)n1cc(-c2nccc(Nc3cc(NC4CCC(O)(C5CC5)CC4)c(-c4ccn(C(F)F)n4)cn3)n2)cn1 (centres unmarked) ?
// result high group

// query Now the same for O=S(=O)(C1CC1)n1cc(-c2nccc(Nc3cc(NC4CCC(CCF)CC4)c(-c4ccn(C(F)F)n4)cn3)n2)cn1 (centres unmarked)
// result high group

// query Can you handle CN(C)CCCn1ccc(-c2cnc(Nc3ccnc(-c4cnn(S(=O)(=O)C5CC5)c4)n3)cc2NCC2(CO)COC2)n1 next?
// result middle group

// query Another compound: CCC(C)Nc1cc(Nc2ccnc(-c3cnn(S(=O)(=O)C4CC4)c3)n2)ncc1-c1ccn(C(F)F)n1 (centres unmarked)
// result high group

// query Entry C[C@]1(O)CC[C@@H](Nc2cc(Nc3ccnc(-c4cnn(CC(F)F)c4)n3)ncc2-c2ccn(C(F)F)n2)CC1 please
// result low group

// query Param item: O=S(=O)(C1CC1)n1cc(-c2nccc(Nc3cc(N[C@H]4CC[C@H](CO)CC4)c(-c4ccn(C(F)F)n4)cn3)n2)cn1
// result low group

// query Could you do the same for O=S(=O)(C1CC1)n1cc(-c2nccc(Nc3cc(N[C@H]4CC[C@](O)(C(F)F)CC4)c(-c4ccn(C(F)F)n4)cn3)n2)cn1 , please?
// result middle group

// query And for CC(=O)N1CC=C(c2nccc(Nc3cc(N[C@H]4CC[C@@](C)(O)CC4)c(-c4ccn(C(F)F)n4)cn3)n2)CC1 ?
// result high group

// query Please answer likewise for O=S(=O)(C1CC1)n1cc(-c2nccc(Nc3cc(OC4CCC(O)CC4)c(-c4cnn(C(F)F)c4)cn3)n2)cn1 (centres unmarked)
// result low group

// query What about this compound? C[C@]1(O)CC[C@@H](Nc2cc(Nc3ccnc(-c4cnn(CCF)c4)n3)ncc2-c2ccn(C(F)F)n2)CC1
// result middle group

// query Next record, please: CN(CC(F)F)C(=O)[C@H]1CC[C@@H](Nc2cc(Nc3ccnc(-c4cnn(S(=O)(=O)C5CC5)c4)n3)ncc2-c2ccn(C)n2)CC1
// result low group

// query Now the same for Cn1nc(-c2cnc(Nc3ccnc(-c4cnn(S(=O)(=O)C5CC5)c4)n3)cc2N[C@H]2CC[C@@H](C(C)(C)O)CC2)cc1C(F)(F)F
// result high group

// query Same again, this time with O=S(=O)(C1CC1)n1cc(-c2nccc(Nc3cc(N[C@H]4CC[C@@H](NCC(F)F)CC4)c(-c4ccn(C(F)F)n4)cn3)n2)cn1
// result middle group

// query Now consider CN(C)[C@H]1CC[C@H](CNc2cc(Nc3ccnc(-c4cnn(S(=O)(=O)C5CC5)c4)n3)ncc2-c2ccn(C(F)F)n2)CC1 and answer again.
// result low group
